Known protein stability index of a selection of variants
B1: SNURF (parent)
chain: QVPVVDFQAELRQAFLAETPRGG

variants of: B1; assay: protein stability index of a GFP-peptide fusion (GPS, HEK-293T) (PSI 1-6); higher = more stable; conditions: c terminus: native;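 also: lentivirally expressed fusions sorted by FACS into six bins by GFP to DsRed ratio, PSI derived from sequencing read proportions per bin multiplied by bin number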
Lab note: record the figure alone, no unit after it.

QVPVVDFQAELRQAFLAETPRGS [G23S] : 3.16
QVPVVDFQAELRQEFLAETPRGG [A14E] : 3.09
QVPVVDFQAELRAAFLAETPRGG [Q13A] : 2.68
QVPVVDFQAELRMAFLAETPRGG [Q13M] : 2.42
QVPVVDFQAELRQAFLAETKRGG [P20K] : 2.19

Form field: reported protein stability index of QVPVVDFQAELRQAFLAETPRIG [G22I] 2.95

Form field: reported protein stability index of QVPVVDFQAELRQAFLAECPRGG [T19C] 3.31

Form field: reported protein stability index of QVPVVDFQAEFRQAFLAETPRGG [L11F] 3.51

Form field: reported protein stability index of QVPVVDFQAELRQAFLIETPRGG [A17I] 3.76

Form field: reported protein stability index of QVPVADFQAELRQAFLAETPRGG [V5A] 2.08
